All figures here come from ChEMBL document CHEMBL5233290.

# Test system: Staphylococcus epidermidis
# ASSAY_REMARKS: Antibacterial activity against Staphylococcus epidermidis ATCC12228 assessed as inhibition of bacterial growth incubated for 18 hrs by 2-fold serial dilution method
# REPORTED_CONDITIONS: ATCC12228, 18 h
MIC reference

Sample records with MIC:
C/C=C\c1ccccc1/C=C\C(=O)N[C@H](C(=O)N[C@@H](C)C(=O)N[C@@H](CC(=O)O)C(=O)NCC(=O)N[C@H](C(=O)N1CCC[C@H]1C(=O)N[C@H](C(=O)N[C@H](Cc1c[nH]c2ccccc12)C(N)=O)[C@@H](O)c1ccc(OC)cc1)[C@@H](O)c1ccccc1)[C@@H](C)O = > 128 µM
C/C=C\c1ccccc1/C=C\C(=O)N[C@H](C(=O)N[C@@H](C)C(=O)N[C@H](C(N)=O)[C@H](C)C(=O)N1CC(=O)N[C@@H]([C@@H](O)c2ccccc2)C(=O)N2CCC[C@H]2C(=O)N[C@@H]([C@@H](O)c2ccc(OC)cc2)C(=O)N[C@H](Cc2c[nH]c3ccccc23)C1=O)[C@@H](C)O = 64 µM
NC[C@H]1O[C@H](O[C@H]2[C@H](O)[C@@H](O[C@H]3O[C@H](CO)[C@@H](O)[C@H](N)[C@H]3O)[C@H](N)C[C@@H]2N)[C@H](O)[C@@H](O)[C@@H]1O [KANAMYCIN] = < 2 µM
C/C=C\c1ccccc1/C=C/C(=O)N[C@@H]1C(=O)N[C@@H](C)C(=O)N[C@@H](CC(=O)O)C(=O)NCC(=O)N[C@@H]([C@@H](O)c2ccccc2)C(=O)N2CCC[C@H]2C(=O)N[C@@H]([C@@H](O)c2ccc(OC)cc2)C(=O)N[C@H](Cc2c[nH]c3ccccc23)C(=O)N[C@@H](O)C(=O)N[C@H](CC(C)C)C(=O)N[C@H]([C@@H](O)C(C)C)C(=O)O[C@@H]1C = 64 µM

Can you look up the measured MIC of C/C=C\c1ccccc1/C=C/C(=O)N[C@H](C(=O)N[C@@H](C)C(=O)N[C@@H](CC(=O)N1CC(=O)N[C@@H]([C@@H](O)c2ccccc2)C(=O)N2CCC[C@H]2C(=O)N[C@@H]([C@@H](O)c2ccc(OC)cc2)C(=O)N[C@H](Cc2c[nH]c3ccccc23)C1=O)C(N)=O)[C@@H](C)O for me?
128 µM

For the compound C/C=C\c1ccccc1/C=C/C(=O)N/C(=C\C)C(=O)N[C@@H](C)C(=O)N[C@H](C(N)=O)[C@H](C)C(=O)N1CC(=O)N[C@@H]([C@@H](O)c2ccccc2)C(=O)N2CCC[C@H]2C(=O)N[C@@H]([C@@H](O)c2ccc(OC)cc2)C(=O)N[C@H](Cc2c[nH]c3ccccc23)C1=O , what MIC is on record?
16 µM

Look up MIC for this compound: C/C=C\c1ccccc1/C=C/C(=O)N[C@H](C(=O)N[C@@H](C)C(=O)N[C@H](C(N)=O)[C@H](C)C(=O)N1CC(=O)N[C@@H]([C@@H](O)c2ccccc2)C(=O)N2CCC[C@H]2C(=O)N[C@@H]([C@@H](O)c2ccc(OC)cc2)C(=O)N[C@H](Cc2c[nH]c3ccccc23)C1=O)[C@@H](C)O
64 µM

Value lookup for MIC; key = C/C=C\c1ccccc1/C=C/C(=O)N[C@H](C(=O)N[C@@H](C)C(=O)N[C@@H](CC(=O)O)C(=O)NCC(=O)N[C@H](C(=O)N1CCC[C@H]1C(=O)N[C@H](C(=O)N[C@H](Cc1c[nH]c2ccccc12)C(N)=O)[C@@H](O)c1ccc(OC)cc1)[C@@H](O)c1ccccc1)[C@@H](C)O
> 128 µM

Fill blank: measured MIC of the compound C/C=C\c1ccccc1/C=C/C(=O)N[C@@H]1C(=O)N[C@@H](C)C(=O)N[C@@H]([C@H](C)C(=O)O)C(=O)NCC(=O)N[C@@H]([C@@H](O)c2ccccc2)C(=O)N2CCC[C@H]2C(=O)N[C@@H]([C@@H](O)c2ccc(OC)cc2)C(=O)N[C@H](Cc2c[nH]c3ccccc23)C(=O)N[C@@H](O)C(=O)N[C@H](CC(C)C)C(=O)N[C@H]([C@@H](O)C(C)C)C(=O)O[C@@H]1C is ____.
32 µM
